Target Or Test System: GST-tagged-Wee1 kinase (Homo sapiens)
Sequence (P30291 whole entry): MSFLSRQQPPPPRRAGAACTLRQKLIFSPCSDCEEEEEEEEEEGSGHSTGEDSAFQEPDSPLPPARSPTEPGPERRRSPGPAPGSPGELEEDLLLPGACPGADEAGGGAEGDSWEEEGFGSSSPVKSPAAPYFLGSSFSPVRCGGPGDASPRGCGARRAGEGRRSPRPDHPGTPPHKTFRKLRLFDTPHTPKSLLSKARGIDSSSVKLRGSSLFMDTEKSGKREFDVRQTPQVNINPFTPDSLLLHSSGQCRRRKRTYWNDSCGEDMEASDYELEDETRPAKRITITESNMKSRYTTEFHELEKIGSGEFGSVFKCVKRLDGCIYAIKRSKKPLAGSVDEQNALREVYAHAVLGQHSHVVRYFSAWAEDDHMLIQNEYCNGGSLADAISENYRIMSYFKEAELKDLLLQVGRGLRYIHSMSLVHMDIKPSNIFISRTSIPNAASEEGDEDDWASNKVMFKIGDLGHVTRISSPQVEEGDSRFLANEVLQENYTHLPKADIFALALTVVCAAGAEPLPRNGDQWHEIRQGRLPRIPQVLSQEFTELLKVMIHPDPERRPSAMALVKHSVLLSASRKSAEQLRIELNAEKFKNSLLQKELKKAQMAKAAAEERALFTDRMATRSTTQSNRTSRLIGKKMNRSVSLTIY
Protocol Text: Wee1 time-resolved fluorescence equilibrium binding assay (displacement of Oregon Green-labeled ATP-competitive kinase probe)
Measured pKi of individual entries
# pKi: negative log10 of molar concentration; output just the value

| Smiles Code | Target Or Test System | Measurement Type | Recorded Measurement |
| --- | --- | --- | --- |
| Cc1nn(-c2c(Cl)cccc2Cl)c(=O)c2cnc(Nc3ccc4c(c3)CCN(S(C)(=O)=O)C4)nc12 | GST-tagged-Wee1 kinase (Homo sapiens) | pKi | 9.21 |
| CN1CCc2ccc(Nc3ncc4c(=O)n(-c5c(Cl)cccc5Cl)nc(C(F)F)c4n3)cc2C1 | GST-tagged-Wee1 kinase (Homo sapiens) | pKi | 9.62 |
| C=CCn1nc(C2CCCC2)c2nc(Nc3ccc(N4CCN(C)CC4)cc3)ncc2c1=O | GST-tagged-Wee1 kinase (Homo sapiens) | pKi | 6.60 |

We now examine a further compound.
Per the records, this compound ( O=c1c2cnc(Nc3ccc(N4CCN(C5COC5)CC4)cc3)nc2c(-c2ccncc2)nn1-c1c(Cl)cccc1Cl ) has pKi equal to 9.10

---

Target Or Test System: GST-tagged-Wee1 kinase (Homo sapiens)
Protocol Text: Wee1 time-resolved fluorescence equilibrium binding assay (displacement of Oregon Green-labeled ATP-competitive kinase probe)
pKi: −log10 of the molar value.
Record condition met whenever pKi is at 9 or higher; record condition not met when lower.

The examples below pair each entry with its known result.
| Smiles Code | Assigned Label |
| --- | --- |
| CN1CCN(c2ccc(Nc3ncc4c(=O)n(CCC#N)nc(CCc5ccccc5)c4n3)cc2)CC1 | condition not met |
| CN1CCN(c2ccc(Nc3ncc4c(=O)n(-c5ccccc5)nc(-c5cccnc5)c4n3)cc2)CC1 | condition not met |
| Cc1nn(-c2c(Cl)cccc2Cl)c(=O)c2cnc(Nc3cccc(N4CCOCC4)c3)nc12 | condition not met |
| CN1CCN(c2ccc(Nc3ncc4c(=O)n(-c5c(Cl)cccc5Cl)nc(-c5ccccc5)c4n3)cc2)CC1 | condition met |
| CN1CCN(c2ccc(Nc3ncc4c(=O)n(-c5cccc(F)c5)nc(C5CC(F)(F)C5)c4n3)cc2)CC1 | condition not met |
| CN1CCN(c2ccc(Nc3ncc4c(=O)n(-c5c(Cl)cccc5Cl)nc(-c5cccs5)c4n3)cc2)CC1 | condition met |
| C=CCn1nc(-c2cccs2)c2nc(Nc3ccc(N4CCCN(C(C)C)CC4)c(C)c3)ncc2c1=O | condition not met |
| CN1CCN(c2ccc(Nc3ncc4c(=O)n(-c5c(Cl)cccc5Cl)nc(-c5cccc(C(C)(C)O)n5)c4n3)cc2)CC1 | condition met |
| Cc1nn(-c2c(Cl)cccc2Cl)c(=O)c2cnc(Nc3ccc4c(c3)CNC(=O)C4)nc12 | condition met |
| CN(C)Cc1ccc(Nc2ncc3c(=O)n(-c4ccccc4Cl)nc(-c4ccccc4)c3n2)cc1 | condition not met |

## Task Hi, just wondering whether CCCc1nn(CC(F)(F)F)c(=O)c2cnc(Nc3ccc(N4CCN(C)CC4)cc3)nc12 shows pKi of 9 or higher.
## Result condition not met

---

Measured Ki of individual entries
Target Or Test System: UniProt:P30291
Protocol Text: Wee1 time-resolved fluorescence equilibrium binding assay (displacement of Oregon Green-labeled ATP-competitive kinase probe)
Just the number please, in nM, no unit attached.

The examples below pair each entry with its known result.
| Smiles Code | Recorded Measurement |
| --- | --- |
| Cc1cccc(-c2nn(-c3ccccc3C)c(=O)c3cnc(Nc4ccc(N5CCN(C)CC5)cc4)nc23)c1 | 1 |
| C=CCn1nc(C)c2nc(Nc3ccc(N4CCN(C)CC4)cc3)ncc2c1=O | 140 |
| O=c1c2cnc(Nc3ccc4c(c3)CNCC43CC3)nc2c(-c2ccccn2)nn1-c1c(Cl)cccc1Cl | 0.2 |
| CC1(C)CNCc2cc(Nc3ncc4c(=O)n(C5CCNCC5)nc(-c5ccccn5)c4n3)ccc21 | 840 |
| CN1CCN(c2ccc(Nc3ncc4c(=O)n(-c5c(Cl)cccc5Cl)nc(C(F)(F)F)c4n3)cc2)CC1 | 1 |
| O=c1c2cnc(Nc3ccc4c(c3)CNCC4)nc2c(C(F)(F)F)nn1-c1c(Cl)cccc1Cl | 0.5 |
| O=C1CCCN1c1ccc(-c2nn(-c3c(Cl)cccc3Cl)c(=O)c3cnc(Nc4ccc5c(c4)CNCC5)nc23)cc1 | 0.2 |
| Cc1ccccc1-n1nc(C2CCCC2)c2nc(Nc3ccc(N4CCN(C)CC4)cc3)ncc2c1=O | 9 |
| CN1CCC(n2nc(-c3ccccn3)c3nc(Nc4ccc5c(c4)CNCC5(C)C)ncc3c2=O)CC1 | 27 |
| Cc1nn(-c2c(Cl)cccc2Cl)c(=O)c2cnc(Nc3ccc(NC4CCNCC4)cc3)nc12 | 0.2 |

Form field Ki for item CN1CCN(c2ccc(Nc3ncc4c(=O)n(-c5ccccc5)nc(-c5ccccc5)c4n3)cc2)CC1 on UniProt:P30291: 2

Form field Ki for item CN1CCN(c2ccc(Nc3ncc4c(=O)n(-c5c(Cl)cccc5Cl)nc(-c5ccn(CCCl)n5)c4n3)cc2)CC1 on UniProt:P30291: 0.3

Form field Ki for item CN1CCN(c2ccc(Nc3ncc4c(=O)n(-c5c(Cl)cccc5Cl)nc(-c5cncs5)c4n3)cc2)CC1 on UniProt:P30291: 1.4

Form field Ki for item CCCc1nn(CCC#N)c(=O)c2cnc(Nc3ccc(N4CCN(C)CC4)cc3)nc12 on UniProt:P30291: 350
